Numbers sourced from PubChem BioAssay (EPA / NIEHS).

- assayDetails: Tanguay_ZF_120hpf_TR_legacy: (Legacy) Oregon State University Tanguay Lab 120 Hour Post-fertilization zebrafish Assay for Touch Response (AID 2283667)
Records with an inconclusive call do not appear. Calls of active or inactive are those of the source. The calls were made as follows: active = hit-call score of the fitted dose curve at least 0.9, where 1 is the maximum; inconclusive = response in the unintended direction; inactive = score below 0.9.
Write down the outcome that applies. Available outcomes: active, inactive

Look over these answered cases.
# molecule, assignedCategory
records = [
    ("CCCCCCCCCCCCCCCCCC(=O)O", "inactive"),
    ("COCCOC[C@H](CC1(C(=O)NC2CCC(C(=O)O)CC2)CCCC1)C(=O)Oc1ccc2c(c1)CCC2 (some centres not stated)", "inactive"),
    ("Oc1ccc2c(c1)OC[C@@H](N1CCC(O)(c3ccc(F)cc3)CC1)[C@H]2O", "inactive"),
    ("C[C@]12C=CC(=O)C=C1CC[C@@H]1[C@@H]2C(=O)C[C@@]2(C)[C@H]1CC[C@]2(O)C(=O)CO", "inactive"),
    ("CN[C@H]1CC[C@@H](c2ccc(Cl)c(Cl)c2)c2ccc(S(N)(=O)=O)cc21", "inactive"),
]

Turning now to a further record.
Which result was noted for this molecule in the test: CCOC(=O)C(C)(C)Oc1ccc(Cl)cc1
inactive
